The reported numbers originate from patent US11535621B2.

Listed here: compounds with reported IC50 for Human CD38 (Homo sapiens (Human), UniProt P28907).

The following compounds each have a reported value; give each one's IC50.
1. O=C(N[C@H]1CC[C@H](OCC(F)(F)F)CC1)c1nc(-n2ccnc2)cc2cn[nH]c12
2. COCCO[C@H]1CC[C@H](NC(=O)c2nc(-n3ccnc3)cc3cnn(C)c23)CC1
3. CN(C)C(=O)CO[C@H]1CC[C@H](NC(=O)c2nc(-n3ccnc3)cc3cn[nH]c23)CC1

Result:
["10 to 100 nM", "10 to 100 nM", "10 to 100 nM"]

---

biological target: Human CD38 (Homo sapiens (Human), UniProt P28907)
Sequence (P28907 whole entry): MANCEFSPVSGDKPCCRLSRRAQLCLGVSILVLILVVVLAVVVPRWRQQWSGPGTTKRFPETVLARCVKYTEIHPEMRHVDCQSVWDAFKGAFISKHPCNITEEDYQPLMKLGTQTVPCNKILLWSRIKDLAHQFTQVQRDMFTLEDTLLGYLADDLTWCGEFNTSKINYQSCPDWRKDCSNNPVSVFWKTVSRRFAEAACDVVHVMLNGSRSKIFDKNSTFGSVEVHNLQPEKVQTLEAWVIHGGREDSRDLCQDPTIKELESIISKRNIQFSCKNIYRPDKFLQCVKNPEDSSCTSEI
pIC50: −log10 of the molar value.
Record form. Attribute: pIC50. Fill in for each entry.

Here is how some compounds turned out for pIC50.
Cc1cc2nc(-n3ccnc3)nc(C(=O)NC3CCC(F)(F)CC3)c2[nH]1: > 8.00
Cc1cc2nc(-n3ccnc3)nc(C(=O)N[C@H]3CC[C@H](C(C)(C)O)CC3)c2[nH]1: > 8.00

The following compounds each have a reported value; give each one's pIC50.
1. O=C(N[C@H]1CC[C@H](NCC(F)F)CC1)c1nc(-n2ccnc2)nc2ccsc12
2. N#CC[C@H]1CC[C@H](NC(=O)c2nc(-n3ccnc3)nc3cc[nH]c23)CC1
3. CN1CCC(NC(=O)c2nc(-n3ccnc3)nc3cc[nH]c23)CC1
4. CC(C)[C@@H](O)CO[C@H]1CC[C@H](NC(=O)c2nc(-n3ccnc3)nc3cc[nH]c23)CC1 (single isomer, unassigned) [Example 119a]
5. CNC(=O)CO[C@H]1CC[C@H](NC(=O)c2nc(-n3ccnc3)nc3cc[nH]c23)CC1
6. COCCO[C@H]1CC[C@H](NC(=O)c2nc(-n3ccnc3)cc3cn(C)nc23)CC1
7. CN(C)C(=O)CO[C@H]1CC[C@H](NC(=O)c2nc(-n3ccnc3)nc3cn[nH]c23)CC1
8. O=C(NC1CCC(F)(F)CC1)c1nc(-n2ccnc2)nc2nc[nH]c12

Result:
1: 7.00 to 8.00; 2: > 8.00; 3: < 6.00; 4: 7.00 to 8.00; 5: 7.00 to 8.00; 6: 7.00 to 8.00; 7: 7.00 to 8.00; 8: 7.00 to 8.00

The following compounds each have a reported value; give each one's pIC50.
1. O=C(Nc1ccccc1Cl)c1nc(-n2ccnc2)nc2cc[nH]c12
2. COCCO[C@H]1CC[C@H](NC(=O)c2cc(-c3cncs3)cc3cc(C)[nH]c23)CC1
3. O=C(NC1CCN(C2COC2)CC1)c1nc(-n2ccnc2)nc2cc[nH]c12
4. COCCO[C@H]1CC[C@H](NC(=O)c2nc(-n3ccnc3)nc3cc(C)[nH]c23)CC1

Result:
1. > 8.00
2. 6.00 to 7.00
3. 7.00 to 8.00
4. 7.00 to 8.00

---

target: Human CD38 (Homo sapiens (Human), UniProt P28907)
pIC50: −log10 of the molar value.
RESULT TYPE: pIC50

Here is how some compounds turned out for pIC50.
CC(=O)N1CCC(NC(=O)c2nc(-n3ccnc3)nc3cc[nH]c23)CC1 [Example 64]: 7.00 to 8.00
O=C(N[C@H]1CC[C@H](OCCN2CCOCC2)CC1)c1nc(-n2ccnc2)nc2cc[nH]c12 [Example 97]: 7.00 to 8.00
O=C(NC1CCC(F)(F)CC1)c1nc(-n2ccnc2)cc2cn[nH]c12 [Example 107]: > 8.00

The following compounds each have a reported value; give each one's pIC50.
1. O=C(N[C@H]1CC[C@@H](O)CC1)c1nc(-n2ccnc2)nc2cc[nH]c12 [Example 186]
2. O=C(Nc1ccc2c(c1)CNC2)c1nc(-n2ccnc2)nc2cc[nH]c12 [Example 211]
3. CNC(=O)C[C@H]1CC[C@H](NC(=O)c2nc(-n3ccnc3)cc3cn[nH]c23)CC1 [Example 199]

Result:
1. 7.00 to 8.00
2. > 8.00
3. 7.00 to 8.00
